- testSystem: ΔF508-CFTR (Homo sapiens, UniProt P13569, DEL508-508)
- Construct: host or cells: CFBE41o-, doxycycline-inducible
- Sequence (P13569 with tags, fused parts or gaps DEL508-508): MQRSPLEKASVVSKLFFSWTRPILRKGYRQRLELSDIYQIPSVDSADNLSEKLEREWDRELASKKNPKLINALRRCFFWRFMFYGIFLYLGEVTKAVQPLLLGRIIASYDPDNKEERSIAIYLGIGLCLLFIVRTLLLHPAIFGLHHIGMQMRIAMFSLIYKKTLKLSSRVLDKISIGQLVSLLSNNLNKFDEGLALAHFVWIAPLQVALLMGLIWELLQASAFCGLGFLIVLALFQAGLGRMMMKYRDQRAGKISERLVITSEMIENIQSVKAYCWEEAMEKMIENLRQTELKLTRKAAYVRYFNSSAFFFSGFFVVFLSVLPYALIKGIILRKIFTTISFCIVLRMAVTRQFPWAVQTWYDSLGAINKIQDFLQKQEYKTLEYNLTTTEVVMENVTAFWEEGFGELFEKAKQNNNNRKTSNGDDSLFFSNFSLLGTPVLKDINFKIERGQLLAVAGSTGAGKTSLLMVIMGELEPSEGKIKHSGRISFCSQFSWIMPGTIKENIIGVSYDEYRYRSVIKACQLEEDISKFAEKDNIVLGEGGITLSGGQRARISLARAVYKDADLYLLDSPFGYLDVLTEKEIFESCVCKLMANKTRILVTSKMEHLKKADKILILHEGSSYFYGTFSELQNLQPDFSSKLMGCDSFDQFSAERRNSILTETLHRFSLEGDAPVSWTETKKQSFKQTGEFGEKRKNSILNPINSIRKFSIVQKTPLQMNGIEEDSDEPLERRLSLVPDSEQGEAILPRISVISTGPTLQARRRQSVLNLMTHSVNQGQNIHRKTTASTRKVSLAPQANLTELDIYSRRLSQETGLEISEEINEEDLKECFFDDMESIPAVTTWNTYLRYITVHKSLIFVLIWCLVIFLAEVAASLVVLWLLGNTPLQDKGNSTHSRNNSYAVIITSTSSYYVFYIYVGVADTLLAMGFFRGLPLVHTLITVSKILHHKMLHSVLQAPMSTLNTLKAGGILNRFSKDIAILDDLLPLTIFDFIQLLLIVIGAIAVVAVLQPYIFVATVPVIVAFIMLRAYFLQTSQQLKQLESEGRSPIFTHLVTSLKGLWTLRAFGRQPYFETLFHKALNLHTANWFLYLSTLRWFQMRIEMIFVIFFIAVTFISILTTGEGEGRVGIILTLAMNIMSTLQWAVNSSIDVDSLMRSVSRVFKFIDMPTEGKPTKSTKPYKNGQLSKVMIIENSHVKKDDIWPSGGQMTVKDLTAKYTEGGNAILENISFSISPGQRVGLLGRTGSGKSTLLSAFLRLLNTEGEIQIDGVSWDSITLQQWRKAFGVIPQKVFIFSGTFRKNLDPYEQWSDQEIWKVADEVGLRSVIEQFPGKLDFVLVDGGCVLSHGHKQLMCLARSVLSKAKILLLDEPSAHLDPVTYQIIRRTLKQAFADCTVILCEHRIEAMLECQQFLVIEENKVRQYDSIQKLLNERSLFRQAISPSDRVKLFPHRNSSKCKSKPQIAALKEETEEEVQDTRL
- experiment: CFTR cell surface levels using HRP-tagged ΔF508-CFTR expressing CFBE cells, in the presence of a co-corrector
- Type: cell-based
- testContext: HRP-tagged ΔF508-CFTR CFBE cells, in the presence of 3 μM co-corrector
measuredMetric: % Activation (%)
Give your result in % as a bare value.

Sample records with % Activation:
{"columns": ["compound", "unitOfMeasurement", "measured"],
 "data": [
  ["CC(=O)N1CCC(COc2cc(C(=O)NS(C)(=O)=O)nc3c2c(C(C)C)nn3-c2ccc(F)cc2)CC1 [Compound 321]", "%", 314.37],
  ["CCS(=O)(=O)N(C)C(=O)c1cc(N2CCC(N3CCOCC3)CC2)c2c(C3CCC3)nn(-c3ccccc3)c2n1 [Compound 658]", "%", 270.6],
  ["COc1cccc(-n2nc(C)c3c(-c4ccc(N5CCOCC5)cc4)cc(C(=O)NS(C)(=O)=O)nc32)c1 [Compound 72]", "%", 400.9],
  ["Cc1nn(-c2ccccc2)c2nc(C(=O)NS(C)(=O)=O)cc(-c3ccc(N4CCOCC4)nc3)c12 [Compound 37]", "%", 457.25],
  ["COCCN(C)c1cc(C(=O)NS(C)(=O)=O)nc2c1c(C(C)C)nn2-c1cccc(C)c1 [Compound 170]", "%", 425.6]
]}

Query :: Fill in: % Activation of CC(C)c1nn(-c2ccc(F)c(F)c2)c2nc(C(=O)NS(C)(=O)=O)cc(-c3ccc(N4CCOCC4)cc3)c12 [Compound 127] is ___
Result :: 449.1

Query :: Which % Activation reading was recorded for the compound CC(C)c1nn(-c2ccc(F)cc2)c2nc(C(=O)NS(C)(=O)=O)cc(N3CCNC(C(F)(F)F)C3)c12 (stereo not shown) [Compound 339] ?
Result :: 295.5
